Test system: OVCAR-8
Test: NCI tumour cell line growth inhibition, 48 h
The source made the active and inactive calls. Rule as the data show it: active = GI50 up to about 1.1 µM and inactive = higher. Peptide text beside a SMILES is read from it. * marks the point of attachment. Boc = CC(C)(C)OC(=O)*; OBn = c1ccc(CO*)cc1
ASSAY_ENDPOINT: GI50

CON(C)C(=O)C(C)NC(=O)OCc1ccccc1 (configuration not stated) : > 100 µM (inactive)
CC(C)(c1ccc(Oc2ccc(C#N)c(C#N)c2)cc1)c1ccc(Oc2ccc(C#N)c(C#N)c2)cc1 : > 10 µM (inactive)
COc1ccc2nc(-c3cccs3)cc(C(O)CN3CCSCC3)c2c1 (configuration not stated) : 16.6 µM (inactive)
CC(C)CC(NC(=O)OC(C)(C)C)C(=O)NC(CC(=O)OCc1ccccc1)C(N)=O (stereo not drawn) (Boc-Leu-Asp(OBn)-NH2; configuration not given here) : > 100 µM (inactive)
CCC1(CC)C(=O)N(C(=O)c2ccc(C)cc2)N(C(=O)c2ccc(C)cc2)C1=O : > 75 µM (inactive)
CC(C)(C)CI : > 10 µM (inactive)
O=CC[C@H]1C(=O)C[C@@H]2CCC[C@@H]21 : 43.1 µM (inactive)
CCOC(=O)CC(=O)NC1CC2CCC1(C)C2(C)C (configuration not stated) : > 100 µM (inactive)
c1ccc([P+](CCCCCC[P+](c2ccccc2)(c2ccccc2)c2ccccc2)(c2ccccc2)c2ccccc2)cc1 : 13.3 µM (inactive)
CCOc1ccccc1/N=N/c1ccc2oc(=O)c(C(C)=O)cc2c1 : > 100 µM (inactive)
O=C1C=C(Nc2cc(Cl)ccc2Cl)c2ccccc2C1=O : 16 µM (inactive)
CC1(C)OC1COc1c2occc2cc2ccc(=O)oc12 (configuration not stated) : 60.5 µM (inactive)
O=c1[nH]nc(Cc2ccc(Cl)cc2)n1/N=C\c1ccc(/C=N/n2c(Cc3ccc(Cl)cc3)n[nH]c2=O)cc1 : 54 µM (inactive)
CCOC(=O)/N=c1/nc(N(C)C)ss1 : > 100 µM (inactive)
CC[C@@H]1CC[C@@H]2[C@H](CC[C@]3(C)[C@@H](O[N+](=O)[O-])CC[C@@H]23)[C@H]1C(C)=O : 37.2 µM (inactive)
C=C(C(=O)OC)[C@H]1CC/C(C)=C/CC[C@@](C)(O)C=CC[C@@]2(C)O[C@@H]2C1 : 13.9 µM (inactive)
CC(=O)OCCOc1cc2c([nH]c3ccccc32)c(C)c2cccc1-2 : 2.59 µM (inactive)
